- target under test: PI3Kα (Homo sapiens (Human), UniProt P42336)
- Sequence (P42336 whole entry): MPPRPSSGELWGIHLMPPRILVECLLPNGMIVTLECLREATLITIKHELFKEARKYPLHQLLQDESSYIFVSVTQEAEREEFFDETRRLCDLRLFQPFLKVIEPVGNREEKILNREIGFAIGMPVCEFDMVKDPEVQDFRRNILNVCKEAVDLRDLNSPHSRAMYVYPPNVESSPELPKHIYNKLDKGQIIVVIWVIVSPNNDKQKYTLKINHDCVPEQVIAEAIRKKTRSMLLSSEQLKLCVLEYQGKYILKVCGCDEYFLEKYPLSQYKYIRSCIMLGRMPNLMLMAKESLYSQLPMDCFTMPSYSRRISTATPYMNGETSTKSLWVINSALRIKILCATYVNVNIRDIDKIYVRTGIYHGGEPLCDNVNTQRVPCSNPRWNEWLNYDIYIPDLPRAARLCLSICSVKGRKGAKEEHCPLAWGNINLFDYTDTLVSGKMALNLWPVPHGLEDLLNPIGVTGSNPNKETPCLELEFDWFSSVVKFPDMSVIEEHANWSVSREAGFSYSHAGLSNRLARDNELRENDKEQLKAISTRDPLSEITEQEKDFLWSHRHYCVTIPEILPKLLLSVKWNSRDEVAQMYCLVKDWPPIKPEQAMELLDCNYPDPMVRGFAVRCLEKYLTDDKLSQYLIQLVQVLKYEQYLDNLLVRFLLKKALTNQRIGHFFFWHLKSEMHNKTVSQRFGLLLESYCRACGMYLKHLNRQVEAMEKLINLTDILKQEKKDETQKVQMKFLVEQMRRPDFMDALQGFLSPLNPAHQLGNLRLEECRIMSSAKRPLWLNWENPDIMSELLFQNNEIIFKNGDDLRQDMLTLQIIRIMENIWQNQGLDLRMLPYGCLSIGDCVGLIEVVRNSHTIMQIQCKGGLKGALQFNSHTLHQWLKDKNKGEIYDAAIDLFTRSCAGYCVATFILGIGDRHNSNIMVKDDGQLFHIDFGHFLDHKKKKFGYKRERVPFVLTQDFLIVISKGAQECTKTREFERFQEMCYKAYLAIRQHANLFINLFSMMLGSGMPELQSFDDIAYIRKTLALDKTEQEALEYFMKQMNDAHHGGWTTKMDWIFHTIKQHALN
- Sequence (P27986 whole entry partner): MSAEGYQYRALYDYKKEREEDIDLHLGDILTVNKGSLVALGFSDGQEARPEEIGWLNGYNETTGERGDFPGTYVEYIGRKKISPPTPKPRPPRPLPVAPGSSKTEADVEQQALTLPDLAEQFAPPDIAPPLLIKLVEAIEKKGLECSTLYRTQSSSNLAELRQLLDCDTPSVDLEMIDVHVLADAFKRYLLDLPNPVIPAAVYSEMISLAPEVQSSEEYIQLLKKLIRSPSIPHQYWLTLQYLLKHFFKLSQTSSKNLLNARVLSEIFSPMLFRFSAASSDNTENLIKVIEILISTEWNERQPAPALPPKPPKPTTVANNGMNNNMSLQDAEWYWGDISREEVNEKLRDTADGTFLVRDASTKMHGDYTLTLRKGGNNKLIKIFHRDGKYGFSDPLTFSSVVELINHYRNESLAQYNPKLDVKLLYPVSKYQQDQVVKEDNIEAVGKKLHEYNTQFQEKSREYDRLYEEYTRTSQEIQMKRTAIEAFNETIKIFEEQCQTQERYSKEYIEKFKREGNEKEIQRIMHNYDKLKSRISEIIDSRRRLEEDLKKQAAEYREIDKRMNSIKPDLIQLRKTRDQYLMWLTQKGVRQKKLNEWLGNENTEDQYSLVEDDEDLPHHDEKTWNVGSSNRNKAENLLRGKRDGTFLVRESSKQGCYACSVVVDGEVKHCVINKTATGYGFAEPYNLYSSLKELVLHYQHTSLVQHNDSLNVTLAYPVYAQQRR
- experimental context: read-out: PI3Kα AlphaScreen ® Ki
quantity measured: Ki (µM)

// known answers, use as guide
Cc1nc(-c2cc(Cc3ccc(S(C)(=O)=O)cc3)cnc2Nc2ccc(N)nc2)c2nc[nH]c2n1 = 0.012
Cc1nc(N)nc(-c2cc(Cl)cnc2Nc2cncc(F)c2)n1 = 0.426
COc1ncc(Nc2ncc(C(C)NC(C)C)cc2-c2nc(C)nc(N)n2)cc1F (centres unmarked) = 0.061
Cc1cnc(Nc2cccc3[nH]ncc23)c(-c2nc(C)nc(N)n2)c1 = 0.036

A. COc1ccc(Nc2nc(N3CCCC3)ncc2-c2nc(C)nc(N)n2)cn1
B. COc1ccc(Nc2ncc([C@H](O)C(F)(F)F)cc2-c2nc(C)nc(N)n2)cn1
C. Cc1nc(N)nc(-c2cc(C(C)N3CCOCC3)cnc2Nc2cnc(Cl)c(NS(=O)(=O)N(C)C)c2)n1 (centres unmarked)
D. COc1ncc(Nc2ncc(CN3CCN(S(C)(=O)=O)C[C@@H]3C)cc2-c2nc(C)nc(N)n2)cn1
Arrange the 4 entries by Ki so the values rise. Answer format: the labels, in the requested order.
C, D, B, A
